Biological target: calf thymus/mouse ribonucleotide reductase (mammalian RR) (Bos taurus)
Sequence (Q32LP1 1-791): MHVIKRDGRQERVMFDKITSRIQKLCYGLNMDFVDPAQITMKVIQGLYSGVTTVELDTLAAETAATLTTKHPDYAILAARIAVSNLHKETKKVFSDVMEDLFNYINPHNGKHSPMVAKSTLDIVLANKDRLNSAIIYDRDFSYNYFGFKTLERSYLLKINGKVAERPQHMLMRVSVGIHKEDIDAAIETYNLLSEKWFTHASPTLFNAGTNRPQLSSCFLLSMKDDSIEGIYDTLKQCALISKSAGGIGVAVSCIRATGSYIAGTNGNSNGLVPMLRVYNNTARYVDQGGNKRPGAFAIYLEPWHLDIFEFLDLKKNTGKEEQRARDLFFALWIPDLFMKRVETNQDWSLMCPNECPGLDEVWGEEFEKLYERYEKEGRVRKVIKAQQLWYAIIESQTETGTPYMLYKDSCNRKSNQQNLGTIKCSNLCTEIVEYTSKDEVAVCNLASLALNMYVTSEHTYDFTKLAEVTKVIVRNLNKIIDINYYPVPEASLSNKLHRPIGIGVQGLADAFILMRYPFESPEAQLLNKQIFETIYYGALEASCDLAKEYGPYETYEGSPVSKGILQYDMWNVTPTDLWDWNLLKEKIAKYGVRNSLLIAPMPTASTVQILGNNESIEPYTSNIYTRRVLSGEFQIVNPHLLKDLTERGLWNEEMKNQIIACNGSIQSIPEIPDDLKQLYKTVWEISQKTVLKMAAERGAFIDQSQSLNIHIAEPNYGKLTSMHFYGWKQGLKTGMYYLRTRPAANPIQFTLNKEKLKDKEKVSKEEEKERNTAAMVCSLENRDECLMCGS
Assay: biochemical
Ends that are not written are not given here.
IC50 vs 200 µM: less than gives y; not less than gives n.

substance="Ac-FTLDDF [Peptide 26, Ac- (FTLDDF)]" assayed_target="calf thymus/mouse ribonucleotide reductase (mammalian RR) (Bos taurus)" assigned_category=n
substance="Ac-FTLDLDF [Peptide 19, Ac- (FTLDLDF)]" assayed_target="calf thymus/mouse ribonucleotide reductase (mammalian RR) (Bos taurus)" assigned_category=y
substance="Ac-FTADADF [Peptide 15, Ac- (FTADADF)]" assayed_target="calf thymus/mouse ribonucleotide reductase (mammalian RR) (Bos taurus)" assigned_category=n

Answer whether the substance Ac-LTLDADF [Peptide 8, Ac- (LTLDADF)] has IC50 strictly less than 200 µM
n

Answer whether the substance Ac-FLDADF [Peptide 25, Ac- (FLDADF)] has IC50 strictly less than 200 µM
n

Answer whether the substance Ac-FTFNEDF [Peptide 30, Ac- (FTFNEDF)] has IC50 strictly less than 200 µM
y

Answer whether the substance SFTLDADF [Peptide 3] has IC50 strictly less than 200 µM
y
